Values were extracted from paper PMC4791575.

# System: P. falciparum D6
# METHOD DESCRIPTION: microbe, parasite or virus in culture
# Type: cell-based, Plasmodium falciparum
# CONDITIONS USED: Plasmodium falciparum, D6, read-out: P. falciparum D6 pEC50 (converted)
API: label(entry) gives 1.0 if the entry's EC50 is strictly smaller than 2000 nM; on equality or larger values it gives 0.0.

- COc1cc(N2CCC(N3CCN(C)CC3)CC2)ccc1Nc1ncc(Cl)c(Nc2ccccc2S(=O)(=O)C(C)C)n1 [NEU-844, TAE684]: 1.0
- CNC(=O)c1nn(C)c2c1C(C)(C)Cc1cnc(Nc3ccc(N4CCN(C)CC4)cc3)nc1-2 [NEU-969, PHA-8481256]: 0.0
- COc1ccc2c(c1)[nH]c1c(C)nccc12 [NEU-1049, harmine]: 0.0
- C[C@@H](Oc1cc(-c2cnn(C3CCNCC3)c2)cnc1N)c1c(Cl)ccc(F)c1Cl [NEU-838, crizotinib]: 1.0
- CC[C@@H]1C(=O)N(C)c2cnc(Nc3ccc(C(=O)N[C@H]4CC[C@H](N5CCN(CC6CC6)CC5)CC4)cc3OC)nc2N1C(C)C [NEU-979, volasertib]: 1.0
- Nc1ncnc2c1c(-c1cccc(OCc3ccccc3)c1)cn2[C@H]1C[C@@H](CN2CCC2)C1 [NEU-967, NVP-AEW5414]: 1.0
- CCCCOc1c(C(=O)c2c(F)cc(C)cc2F)c[nH]c2nncc1-2 [NEU-968, BMS-2652465]: 0.0
- CCc1cc2c(cc1N1CCC(N3CCOCC3)CC1)C(C)(C)c1[nH]c3cc(C#N)ccc3c1C2=O [NEU-974, CH542480210]: 0.0
- CC[C@@H]1C(=O)N(C)c2cnc(Nc3ccc(C(=O)NC4CCN(C)CC4)cc3OC)nc2N1C1CCCC1 [NEU-980, BI 253616]: 1.0
- CC(C)(C)c1cnc(CSc2cnc(NC(=O)C3CCNCC3)s2)o1 [NEU-984, SNS-03219, 20]: 0.0
- O=C(NC1CCNCC1)c1n[nH]cc1NC(=O)c1c(Cl)cccc1Cl [NEU-982, AT751918]: 1.0
- C[C@]1(O)C[C@@H](c2nc(-c3ccc4ccc(-c5ccccc5)nc4c3)c3c(N)nccn32)C1 [NEU-976, linsitinib]: 1.0
- Cc1ncc(-c2ccnc(Nc3ccc(S(C)(=O)=O)cc3)n2)n1C(C)C [NEU-985, AZD543821]: 1.0
- Cn1cc(C2=C(c3ccc(Cl)cc3Cl)C(=O)NC2=O)c2ccccc21 [NEU-990, SB 21676322]: 0.0
- COc1cc(OC)c(/C=C/S(=O)(=O)Cc2ccc(OC)c(NCC(=O)O)c2)c(OC)c1 [NEU-973, ON-019109]: 0.0
- O=c1sn(-c2cccc3ccccc23)c(=O)n1Cc1ccccc1 [NEU-991, tideglusib]: 0.0
